test: in vivo; conditions: albino, rabbit, retina, other: intravitreal implantation, 200 μg
property_measured: concentration at 184 day (ng/g)
Please state the figure in ng/g; there is no need to write the unit.

Field concentration at 184 day (entry Brc1c(NC2=NCCN2)ccc2nccnc12 ) reads 59.8

* * *

assay: in vivo; conditions: albino, rabbit, plasma, other: intravitreal implantation, 200 μg
property_measured: concentration at 31 day
State the value, then name its unit.

Field concentration at 31 day (entry Brc1c(NC2=NCCN2)ccc2nccnc12 [brimonidine] ) reads 0.0575 ng/mL

* * *

test: in vivo; details: albino, rabbit, vitreous humor, other: intravitreal implantation, 200 μg
property_measured: concentration at 31 day (ng/mL)
Please state the figure in ng/mL; there is no need to write the unit.

Field concentration at 31 day (entry Brc1c(NC2=NCCN2)ccc2nccnc12 ) reads 9.35

* * *

assay: in vivo; settings: albino, rabbit, lens, other: intravitreal implantation, 200 μg
property_measured: concentration at 136 day
State the value, then name its unit.

Field concentration at 136 day (entry Brc1c(NC2=NCCN2)ccc2nccnc12 [brimonidine] ) reads 16.2 ng/g

* * *

assay: in vivo; settings: albino, rabbit, retina, other: intravitreal implantation, 200 μg
property_measured: concentration at 58 day (ng/g)
Please state the figure in ng/g; there is no need to write the unit.

Field concentration at 58 day (entry Brc1c(NC2=NCCN2)ccc2nccnc12 ) reads 122

* * *

test: in vivo; settings: albino, rabbit, vitreous humor, other: intravitreal implantation, 200 μg
property_measured: concentration at 58 day (ng/mL)
Please state the figure in ng/mL; there is no need to write the unit.

Field concentration at 58 day (entry Brc1c(NC2=NCCN2)ccc2nccnc12 ) reads 5.6

* * *

test: in vivo; conditions: albino, rabbit, plasma, other: intravitreal implantation, 200 μg
property_measured: concentration at 8 day (ng/mL)
Please state the figure in ng/mL; there is no need to write the unit.

Field concentration at 8 day (entry Brc1c(NC2=NCCN2)ccc2nccnc12 ) reads 0.092

* * *

test: in vivo; settings: albino, rabbit, retina, other: intravitreal implantation, 200 μg
property_measured: concentration at 91 day (ng/g)
Please state the figure in ng/g; there is no need to write the unit.

Field concentration at 91 day (entry Brc1c(NC2=NCCN2)ccc2nccnc12 ) reads 488

* * *

Experiment: in vivo
Settings: albino, rabbit, iris-ciliary body, other: intravitreal implantation, 200 μg
Experimental: A separate group of rabbits were studied to obtain pharmacokinetic data. In these rabbits the implants were inserted using a surgical intravitreal implantation procedure performed as follows: a conjunctival incision was made, and a sclerotomy was performed with a 20-gauge MVR blade. […] The aqueous humor, vitreous humor, lens, retina and plasma samples from the rabbits were analyzed by using liquid chromatography-mass spectrometry/mass spectrometry (LC-MS/MS) methods.
property_measured: concentration at 91 day (ng/g)
Please state the figure in ng/g; there is no need to write the unit.

Field concentration at 91 day (entry Brc1c(NC2=NCCN2)ccc2nccnc12 ) reads 42.9
